What inhibition of growth at 10 µM was measured for each of the following?
# Tested on: MCF7
# protocol.notes: Cytotoxicity against human MCF7 cells assessed as growth inhibition at 10^-5 M after 72 hrs by MTT assay relative to control
# Assay type: functional
# particulars: MCF7, 72 h, read-out: GI
One number for each entry, in %.

COc1cc2ccc(=O)oc2cc1OC(=O)/C=C/c1ccccc1	3.65

Please look at the items below and tell me inhibition of growth at 10 µM for each one, in order.
1. COc1cc2cc(NC(=O)/C=C/c3ccc(Cl)cc3)c(=O)oc2cc1O
2. COc1cc2ccc(=O)oc2cc1OC(=O)/C=C/c1ccc(Cl)cc1
3. COc1cc2cc(NC(=O)/C=C/c3ccc(C(F)(F)F)cc3)c(=O)oc2cc1O
4. COc1cc2ccc(=O)oc2cc1O [SCOPOLETIN]
5. COc1ccc(/C=C/C(=O)Nc2cc3cc(OC)c(O)cc3oc2=O)cc1
6. COc1cc(CCC(=O)Oc2cc3oc(=O)ccc3cc2OC)ccc1O

**A:**
70.1
22.8
12.6
2.63
44.8
8.55
